Source listed as ChEMBL document CHEMBL1782010.

system: Influenza A virus (A/udorn/1972(H3N2)); test: Inhibition of Influenza A/Udorn/72/H3N2 full length GST-tagged NS1A/FAM-double strand RNA-interaction at 50 uM after 1 hr by fluorescence polarization assay
observable: inhibition (%)

| smiles.text | observable | uom | recorded.value |
| --- | --- | --- | --- |
| COc1ccccc1-c1nc2ccc([N+](=O)[O-])cc2nc1-c1ccccc1OC | inhibition | % | 6.7 |
| Oc1ccc(-c2nc3ccc(O)cc3nc2-c2ccc(O)cc2)cc1 | inhibition | % | 38.8 |
| Oc1cccc(-c2nc3ccccc3nc2-c2cccc(O)c2)c1 | inhibition | % | 10.9 |
| O=C(O)c1ccc2nc(-c3ccc(O)cc3)c(-c3ccc(O)cc3)nc2c1 | inhibition | % | 13.3 |
| COc1cccc(CNC(=O)c2ccc3nc(-c4ccco4)c(-c4ccco4)nc3c2)c1 | inhibition | % | 74 |
| COc1cccc(-c2nc3ccc(OC)cc3nc2-c2cccc(OC)c2)c1 | inhibition | % | 7.2 |
| O=[N+]([O-])c1ccc2nc(-c3cccc(O)c3)c(-c3cccc(O)c3)nc2c1 | inhibition | % | 42.8 |
| COc1cc(CNC(=O)c2ccc3nc(-c4ccco4)c(-c4ccco4)nc3c2)cc(OC)c1OC | inhibition | % | 53.6 |
| COc1ccccc1-c1nc2ccccc2nc1-c1ccccc1OC | inhibition | % | 5 |
| COc1ccccc1CNC(=O)c1ccc2nc(-c3ccco3)c(-c3ccco3)nc2c1 | inhibition | % | 29.5 |
| O=C(NCc1ccccn1)c1ccc2nc(-c3ccco3)c(-c3ccco3)nc2c1 | inhibition | % | 64.7 |
| O=C(O)c1ccc2nc(-c3ccccn3)c(-c3ccccn3)nc2c1 | inhibition | % | 15.7 |
| COc1cccc(-c2nc3ccc([N+](=O)[O-])cc3nc2-c2cccc(OC)c2)c1 | inhibition | % | 1.5 |
| COC(=O)c1ccc2nc(-c3ccco3)c(-c3ccco3)nc2c1 | inhibition | % | 76 |
| COC(=O)CNC(=O)c1ccc2nc(-c3ccco3)c(-c3ccco3)nc2c1 | inhibition | % | 26.7 |
| Oc1ccc(-c2nc3ccccc3nc2-c2ccc(O)cc2)cc1 | inhibition | % | 10.2 |
| O=C(NCc1cccc(F)c1)c1ccc2nc(-c3ccco3)c(-c3ccco3)nc2c1 | inhibition | % | 13.6 |
| COC(=O)c1ccc(CNC(=O)c2ccc3nc(-c4ccco4)c(-c4ccco4)nc3c2)cc1 | inhibition | % | 47.9 |
| Oc1cccc(-c2nc3ccc(O)cc3nc2-c2cccc(O)c2)c1 | inhibition | % | 25 |
| O=[N+]([O-])c1ccc2nc(-c3ccc4c(c3)OCO4)c(-c3ccc4c(c3)OCO4)nc2c1 | inhibition | % | 56.6 |
| O=C(NCc1ccccc1F)c1ccc2nc(-c3ccco3)c(-c3ccco3)nc2c1 | inhibition | % | 11.6 |
| O=[N+]([O-])c1ccc2nc(-c3ccco3)c(-c3ccco3)nc2c1 | inhibition | % | 25.5 |
| O=C(O)c1ccc2nc(-c3ccco3)c(-c3ccco3)nc2c1 | inhibition | % | 60.9 |
| COc1cccc(-c2nc3ccc(C(=O)O)cc3nc2-c2cccc(OC)c2)c1 | inhibition | % | 9.1 |
| c1ccc(-c2nc3ccccc3nc2-c2ccccn2)nc1 | inhibition | % | -3.1 |
| O=C(NCc1ccc(F)cc1)c1ccc2nc(-c3ccco3)c(-c3ccco3)nc2c1 | inhibition | % | 49 |
| Oc1ccc2nc(-c3ccccc3O)c(-c3ccccc3O)nc2c1 | inhibition | % | 10.9 |
| O=C(O[C@@H]1Cc2c(O)cc(O)cc2O[C@@H]1c1cc(O)c(O)c(O)c1)c1cc(O)c(O)c(O)c1 | inhibition | % | 89 |
| COc1ccc2nc(-c3ccco3)c(-c3ccco3)nc2c1 | inhibition | % | 54.3 |
| O=[N+]([O-])c1ccc2nc(-c3ccc(O)cc3)c(-c3ccc(O)cc3)nc2c1 | inhibition | % | 19.5 |
| O=C(O)c1ccc2nc(-c3ccc4c(c3)OCO4)c(-c3ccc4c(c3)OCO4)nc2c1 | inhibition | % | 23.2 |
| COc1cccc(-c2nc3ccccc3nc2-c2cccc(OC)c2)c1 | inhibition | % | 1.4 |
| Oc1ccccc1-c1nc2ccccc2nc1-c1ccccc1O | inhibition | % | -0.9 |
| O=[N+]([O-])c1ccc2nc(-c3ccccn3)c(-c3ccccn3)nc2c1 | inhibition | % | 7.8 |
| COc1ccc(CNC(=O)c2ccc3nc(-c4ccco4)c(-c4ccco4)nc3c2)cc1OC | inhibition | % | 39.5 |
